Property label: melting point

> print(dat)
                           smiles.structure  recorded.measurement
1                     O=C1CCCc2c1ccc1c2OCO1         132 to 136 °C
2  Cn1c(Nc2cc(C(F)(F)F)ccc2C(F)(F)F)nc(C(F)(F)F)cc1=O         155 to 156 °C
3  CCOC(=O)C=C(C)C=CC=C(C)C=Cc1c(C)c(Cl)c(C)c(Cl)c1C         220 to 222 °C

====

In this section, each of the molecules is paired with its reported melting point.
Property label: melting point

> print(dat)
                                    molecule  property.label  recorded.measurement
 1   O=C(O)COc1cc(Cl)ccc1C(=O)NCc1ccc(Br)cc1   melting point         172 to 173 °C
 2  CCOC(=O)C(OCc1ccc(-c2ccc(Cl)cc2)cc1)c1ccccc1 (stereo not given)   melting point           50 to 51 °C
 3           BrCCCCCCCCCCn1c2ccccc2c2ccccc21   melting point           38 to 40 °C
 4               COc1ccc(-c2cc(CO)c(C)o2)cc1   melting point           62 to 64 °C
 5  Cc1cc(C2(C(F)(F)F)ON=C(c3ccc(F)cc3)O2)ccc1N (stereo not given)   melting point           78 to 83 °C
 6  CCOc1cc(CCCC2OC(=O)NC2=O)ccc1OCc1coc(-c2ccccc2)n1 (stereo not given)   melting point         119 to 120 °C
 7                         Cc1ccc2nc(S)oc2c1   melting point                209 °C
 8                     CCCCCCCCCCCCCCCCN=C=O   melting point         107 to 109 °C
 9  Cn1ncnc1COc1nc2c(cc1-c1cccc(F)c1)nnn2-c1ccccc1F   melting point         143 to 145 °C
10  CC(C)(C)c1cc(C(=O)c2cccs2)cc(CN2CCOCC2)c1O   melting point                148 °C
11  COCC1CCCN1S(=O)(=O)c1ccc2c(c1)C1(OCCCO1)C1=NCCCN12 (stereo not given)   melting point         129 to 130 °C
12  CC(=O)OCC(=O)NCc1cccc2c1C(=O)N(C1CCC(=O)NC1=O)C2=O (stereo not given)   melting point         108 to 110 °C
13  Cc1ccc(S(=O)(=O)NC[C@H]2CN3C(=O)C[C@H]3O2)cc1 (racemic)   melting point         123 to 125 °C
14                Cc1cc2nncn2nc1-c1cccc(N)c1   melting point         182 to 186 °C
15  COc1cc2nc(S(=O)Cc3cccn4ccnc34)[nH]c2cc1OC (stereo not given)   melting point         195 to 196 °C
16          FC(F)(F)Oc1ccc(-n2cc(CBr)cn2)cc1   melting point           50 to 51 °C
17                C#CCc1c(F)c(F)c(CO)c(F)c1F   melting point           51 to 52 °C
18  O=C1COC(=O)N1C(c1ccccc1)(c1ccccc1)c1ccccc1   melting point         216 to 218 °C
19           CCOC(=O)N1CCNC1=Nc1ccc(Cl)cc1Cl   melting point         138 to 139 °C
20     CCc1ccccc1C=CC=C1SC(=S)N(CC(=O)O)C1=O   melting point         161 to 183 °C
21                    Oc1ccc(C#Cc2ccccc2)cc1   melting point           83 to 84 °C
22  CSC(=S)N1Cc2[nH]c3ccccc3c2CC1CCO (stereo not given)   melting point         166 to 167 °C
23      O=C(O)/C=C/C(=O)/C=C/c1ccc2c(c1)OCO2   melting point         170 to 173 °C
24        CCN(CC)C(=O)c1c(OC)ccc2cc(Br)ccc12   melting point         109 to 110 °C
25  CN(C)C1=C(C#N)C(c2ccc(Cl)c([N+](=O)[O-])c2)c2ccc3ccccc3c2O1 (stereo not given)   melting point                218 °C
26  C#CCCC(=O)Oc1cc(-n2c(OC)nc(C(F)(F)C(F)(F)F)c(F)c2=O)c(F)cc1Cl   melting point         107 to 109 °C
27          CCOC(=O)Cn1ccn2nc(-c3ccccc3)cc12   melting point           85 to 87 °C
28       OC1(CNc2c(Br)cnc3cc(Cl)ccc23)CCCCC1   melting point         151 to 154 °C
29  CCCCC(=O)OCC(=O)C12OCOC1CC1C3CCC4=CC(=O)C=CC4(C)C3C(O)CC12C (stereo not given)   melting point         121 to 122 °C
30        CCCn1c(=O)[nH]c2cc(Cl)cc(Cl)c2c1=O   melting point         223 to 234 °C
31  O=C1CCc2ccc(OCCCN3CCCN(c4cccc(Cl)c4Cl)CC3)cc2N1   melting point         130 to 131 °C
32  CCCCCCCCCCCCCCCCCCOC(=O)c1cccc(NC(=O)NS(=O)(=O)c2ccc(C)cc2)c1   melting point                 96 °C
33  Cn1c(=O)c(-c2c(Cl)cccc2Cl)cc2cnc(Nc3ccc4c(c3)OCO4)nc21   melting point         240 to 241 °C
34  Cc1c(CC(=O)NCCCO)cc(-c2ccc(S(C)(=O)=O)cc2)n1-c1ccc(F)cc1   melting point                105 °C
35            CC(F)(F)c1cccc(-n2cnc(CO)c2)c1   melting point         104 to 108 °C
36               CCOC(=O)c1cnc2ccc(F)cc2c1Cl   melting point           55 to 57 °C
37  C=CC1=CC=C(OC)C(OC)([N+](=O)[O-])C1 (stereo not given)   melting point         140 to 141 °C
38                 Oc1ccc2c(ccn2Cc2ccncc2)c1   melting point         185 to 186 °C
39        CC(=O)c1cc([N+](=O)[O-])c(N)cc1C#N   melting point         255 to 260 °C
40  CCCCCCCCCCCCCCCCNc1ccc(C(=O)NC(C)(C)C(=O)O)cc1   melting point         199 to 202 °C
